# TARGET_OF_ASSAY: human PD1 on cells (human, UniProt Q15116 25-288)
# Sequence (Q15116 25-288 limits assumed): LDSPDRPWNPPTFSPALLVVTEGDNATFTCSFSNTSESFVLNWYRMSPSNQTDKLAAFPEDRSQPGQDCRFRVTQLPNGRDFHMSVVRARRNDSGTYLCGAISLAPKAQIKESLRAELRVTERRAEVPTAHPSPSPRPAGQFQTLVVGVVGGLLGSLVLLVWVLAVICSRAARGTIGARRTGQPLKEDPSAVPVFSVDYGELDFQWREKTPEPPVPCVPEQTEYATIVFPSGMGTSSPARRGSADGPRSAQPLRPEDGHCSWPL
# TEST_DESCRIPTION: cell-based or functional assay
QUANTITY_NAME: PD1 blockade reporter assay EC50

(Q) Please give the measured PD1 blockade reporter assay EC50 for this binder: P-1238 (antibody, human IgG1, kappa, V domains shown) VH: EVQLLESGGGLVQPGGSLRLSCAASGFTFTNYYMYWVRQAPGKGLEWMGGINPSNGGTNYADKFKGRFTLSTDSSKNTLYLQMNSLRAEDTAVYYCARRDYRFDMGFDYWGQGTLVTVSS VL: EIVLTQSPATLSLSPGERATLSCRASQGVSTSGYSYLHWYQQKPGQAPRLLIYLASYRESGVPARFSGSGSGTDFTLTISSLEPEDFAVYYCQHSRDLPLTFGGGTKVEIKR
(A) 0.73 nM

Just for reference, patent US20260078159A1 is where these values come from.
